Data origin: PubChem BioAssay (Tox21)

assay: qHTS assay to identify small molecule that activate the aryl hydrocarbon receptor (AhR) signaling pathway - cell viability counter screen (AID 743086); conditions: HepG2-AhR-luc viability, CellTiter-Fluor, 24 h; series mostly up to 70.3 µM; further: nearly all actives have a fitted effect of over 45% in size
Records with an inconclusive call do not appear. The source made the active and inactive calls. The call rests on the fitted dose curve; in most records, active means well fitted cell-killing curve with a large enough effect in the repeat runs; inconclusive means weak or mixed curves, or effect the other way; inactive means flat fitted curve, though single readings scatter.
Possible outcomes: active, inactive

>  <compound>
CCOC(=S)S

>  <discrete.label>
inactive

$$$$
>  <compound>
CNC(=O)N(C)c1nnc(C(C)(C)C)s1

>  <discrete.label>
inactive

$$$$
>  <compound>
ClC1C(Cl)C(Cl)C(Cl)C(Cl)C1Cl (configuration not stated)

>  <discrete.label>
inactive

$$$$
>  <compound>
Cc1cccc(N)c1N

>  <discrete.label>
inactive

$$$$
>  <compound>
c1ccc(P(c2ccccc2)c2ccccc2)cc1

>  <discrete.label>
inactive

$$$$
>  <compound>
C=CCc1ccc2c(c1)OCO2

>  <discrete.label>
inactive

$$$$
>  <compound>
Nc1ccc(Cl)c(Cl)c1

>  <discrete.label>
inactive

$$$$
>  <compound>
C1=Cc2cccc3cccc1c23

>  <discrete.label>
inactive

$$$$
>  <compound>
COc1ccc(C(CN(C)C)C2(O)CCCCC2)cc1 (configuration not stated)

>  <discrete.label>
inactive

$$$$
>  <compound>
Oc1c(Cl)c(Cl)c(Cl)c(Cl)c1Cl

>  <discrete.label>
inactive

$$$$
>  <compound>
CC(C)N(C(=O)SCC(Cl)=C(Cl)Cl)C(C)C

>  <discrete.label>
inactive

$$$$
>  <compound>
C=CCc1ccc(OC)cc1

>  <discrete.label>
inactive

$$$$
>  <compound>
CCCCNC(=O)n1c(NC(=O)OC)nc2ccccc21

>  <discrete.label>
inactive

$$$$
>  <compound>
COC(=O)c1sccc1S(=O)(=O)NC(=O)Nc1nc(C)nc(OC)n1

>  <discrete.label>
inactive

$$$$
>  <compound>
CC(C)C(=O)OCC(C)(C)C(OC(=O)C(C)C)C(C)C (configuration not stated)

>  <discrete.label>
inactive

$$$$
>  <compound>
c1nc[nH]n1

>  <discrete.label>
inactive

$$$$
>  <compound>
O=P(O)(O)CCCl

>  <discrete.label>
inactive

$$$$
>  <compound>
COP(=O)(OC)OC

>  <discrete.label>
inactive

$$$$
>  <compound>
CC(C)(OOC(C)(C)c1ccccc1)c1ccccc1

>  <discrete.label>
inactive

$$$$
>  <compound>
CC1(C)C(C=C(Cl)Cl)C1C(=O)OC(C#N)c1cccc(Oc2ccccc2)c1 (configuration not stated)

>  <discrete.label>
inactive

$$$$
>  <compound>
O=P(Oc1ccccc1)(Oc1ccccc1)Oc1ccccc1

>  <discrete.label>
inactive

$$$$
>  <compound>
OCC(O)CO

>  <discrete.label>
inactive

$$$$
>  <compound>
COP(=S)(OC)Oc1cc(Cl)c(Cl)cc1Cl

>  <discrete.label>
inactive

$$$$
>  <compound>
NC(=S)Nc1ccccc1

>  <discrete.label>
inactive

$$$$
>  <compound>
N#Cc1cc(Br)c(O)c(Br)c1

>  <discrete.label>
inactive

$$$$
>  <compound>
O=C(NC(=O)c1c(F)cccc1F)Nc1ccc(Cl)cc1

>  <discrete.label>
inactive

$$$$
>  <compound>
CCCCCCCCOC(=O)c1ccccc1C(=O)OCCCCCCCC

>  <discrete.label>
inactive

$$$$
>  <compound>
CCOc1cc(C=O)ccc1O

>  <discrete.label>
inactive

$$$$
>  <compound>
C[C@]12CCC(=O)C[C@@H]1CC[C@@H]1[C@@H]2CC[C@]2(C)[C@@H](O)CC[C@@H]12

>  <discrete.label>
inactive

$$$$
>  <compound>
Clc1nc(Cl)nc(Cl)n1

>  <discrete.label>
inactive

$$$$
>  <compound>
S=C1NCCN1

>  <discrete.label>
inactive

$$$$
>  <compound>
CCCCCc1cc(O)cc(O)c1

>  <discrete.label>
inactive

$$$$
>  <compound>
CCC(CC)Nc1c([N+](=O)[O-])cc(C)c(C)c1[N+](=O)[O-]

>  <discrete.label>
inactive

$$$$
>  <compound>
CNC(=O)Oc1cccc2c1OC(C)(C)O2

>  <discrete.label>
inactive

$$$$
>  <compound>
C=CCN(CC=C)C(=O)C(Cl)Cl

>  <discrete.label>
inactive

$$$$
>  <compound>
CCCCN(CCCC)N=O

>  <discrete.label>
inactive

$$$$
>  <compound>
Nc1ccncc1

>  <discrete.label>
inactive

$$$$
>  <compound>
Oc1cc(Cl)ccc1Cl

>  <discrete.label>
inactive

$$$$
>  <compound>
O=[N+]([O-])c1c(Cl)c(Cl)c(Cl)c(Cl)c1Cl

>  <discrete.label>
inactive

$$$$
>  <compound>
CC(C)NC(C)C

>  <discrete.label>
inactive

$$$$
>  <compound>
COc1ccc(C=O)cc1

>  <discrete.label>
inactive

$$$$
>  <compound>
C=C(C)C(=O)OCC1CO1 (configuration not stated)

>  <discrete.label>
inactive

$$$$
>  <compound>
O=C(CCl)c1ccccc1

>  <discrete.label>
inactive

$$$$
>  <compound>
c1ccc(NNc2ccccc2)cc1

>  <discrete.label>
inactive

$$$$
>  <compound>
CN(C)C(=O)Nc1ccc(Cl)cc1

>  <discrete.label>
inactive

$$$$
>  <compound>
CCOc1cc(Oc2ccc(C(F)(F)F)cc2Cl)ccc1[N+](=O)[O-]

>  <discrete.label>
inactive

$$$$
>  <compound>
CC(C)(c1cc(Cl)c(O)c(Cl)c1)c1cc(Cl)c(O)c(Cl)c1

>  <discrete.label>
inactive

$$$$
>  <compound>
N#CCCCl

>  <discrete.label>
inactive

$$$$
>  <compound>
Cc1ccc2c(c1N)C(=O)c1ccccc1C2=O

>  <discrete.label>
active

$$$$
>  <compound>
CC(C)=CC1C(C(=O)OCc2coc(Cc3ccccc3)c2)C1(C)C (configuration not stated)

>  <discrete.label>
inactive

$$$$
>  <compound>
CCOC(=O)C(C)OC(=O)c1cc(Oc2ccc(C(F)(F)F)cc2Cl)ccc1[N+](=O)[O-] (configuration not stated)

>  <discrete.label>
inactive

$$$$
>  <compound>
NCc1cccnc1

>  <discrete.label>
inactive

$$$$
>  <compound>
CCN(CC)C(=O)/C(Cl)=C(\C)OP(=O)(OC)OC

>  <discrete.label>
inactive

$$$$
>  <compound>
CCC(=O)O[C@H]1CC[C@H]2[C@@H]3CCC4=CC(=O)CC[C@]4(C)[C@H]3CC[C@]12C

>  <discrete.label>
inactive

$$$$
>  <compound>
CC(C)Oc1cc(-n2nc(C(C)(C)C)oc2=O)c(Cl)cc1Cl

>  <discrete.label>
inactive

$$$$
>  <compound>
O=S(=O)(Oc1ccc(Cl)cc1)c1ccc(Cl)cc1

>  <discrete.label>
inactive

$$$$
>  <compound>
Nn1cnnc1

>  <discrete.label>
inactive

$$$$

----------
test: qHTS RealTime-Glo MT Cell Viability Assay in HEK293 cells - 32 hour (AID 1224868); details: RealTime-Glo luminescence; series mostly up to 76.8 µM; further: nearly all actives have a fitted effect of over 50% in size
Records with an inconclusive call do not appear. The source made the active and inactive calls. The call rests on the fitted dose curve; in most records, active means well fitted cell-killing curve with a large enough effect in the repeat runs; inconclusive means weak or mixed curves, or effect the other way; inactive means flat fitted curve, though single readings scatter.
Possible outcomes: active, inactive

>  <compound>
CC(C)NC(C)C

>  <discrete.label>
inactive

$$$$
>  <compound>
c1cc(OCC2CO2)ccc1Cc1ccc(OCC2CO2)cc1 (configuration not stated)

>  <discrete.label>
inactive

$$$$
>  <compound>
CCC(C)c1ccc(O)cc1 (configuration not stated)

>  <discrete.label>
inactive

$$$$
>  <compound>
O=P(O)(O)CCCl

>  <discrete.label>
inactive

$$$$
>  <compound>
CCN(CC)N=O

>  <discrete.label>
inactive

$$$$
>  <compound>
Oc1cc(Cl)ccc1Cl

>  <discrete.label>
inactive

$$$$
>  <compound>
O=[N+]([O-])c1cccc2ccccc12

>  <discrete.label>
inactive

$$$$
>  <compound>
Oc1cc(Cl)c(Cl)cc1Cl

>  <discrete.label>
inactive

$$$$
>  <compound>
Oc1cc(Cl)ccc1Oc1ccc(Cl)cc1Cl

>  <discrete.label>
active

$$$$
>  <compound>
CN(C)c1ccc(C(=O)c2ccc(N(C)C)cc2)cc1

>  <discrete.label>
active

$$$$
>  <compound>
C=CCN(CC=C)C(=O)C(Cl)Cl

>  <discrete.label>
inactive

$$$$
>  <compound>
CC(C)Oc1cc(-n2nc(C(C)(C)C)oc2=O)c(Cl)cc1Cl

>  <discrete.label>
active

$$$$
>  <compound>
Nc1c(Cl)cc([N+](=O)[O-])cc1Cl

>  <discrete.label>
inactive

$$$$
>  <compound>
c1ccc(P(c2ccccc2)c2ccccc2)cc1

>  <discrete.label>
inactive

$$$$
>  <compound>
C=CCc1ccc(OC)cc1

>  <discrete.label>
inactive

$$$$
>  <compound>
CCOC(=S)S

>  <discrete.label>
inactive

$$$$
>  <compound>
C[C@]12CCC(=O)C(O)=C1CC[C@@H]1[C@@H]2CC[C@]2(C)C(=O)CC[C@@H]12

>  <discrete.label>
inactive

$$$$
>  <compound>
CNC(=O)Oc1cccc2c1OC(C)(C)O2

>  <discrete.label>
inactive

$$$$
>  <compound>
Nc1ccc(Cl)c(Cl)c1

>  <discrete.label>
inactive

$$$$
>  <compound>
c1ccc(N=Nc2ccccc2)cc1

>  <discrete.label>
inactive

$$$$
>  <compound>
Cc1cc(C)cc(C)c1

>  <discrete.label>
inactive

$$$$
>  <compound>
CC(C)(C)c1ccccc1O

>  <discrete.label>
inactive

$$$$
>  <compound>
Nn1cnnc1

>  <discrete.label>
inactive

$$$$
>  <compound>
N#Cc1cc(Br)c(O)c(Br)c1

>  <discrete.label>
inactive

$$$$
>  <compound>
Cc1ccccc1[N+](=O)[O-]

>  <discrete.label>
inactive

$$$$
>  <compound>
CCC(CC)Nc1c([N+](=O)[O-])cc(C)c(C)c1[N+](=O)[O-]

>  <discrete.label>
inactive

$$$$
>  <compound>
C1=Cc2cccc3cccc1c23

>  <discrete.label>
inactive

$$$$
>  <compound>
CC(C)(c1cc(Cl)c(O)c(Cl)c1)c1cc(Cl)c(O)c(Cl)c1

>  <discrete.label>
inactive

$$$$
>  <compound>
c1ccc(NNc2ccccc2)cc1

>  <discrete.label>
inactive

$$$$
>  <compound>
N#CCCCl

>  <discrete.label>
inactive

$$$$
>  <compound>
CCCCN(CCCC)N=O

>  <discrete.label>
inactive

$$$$
>  <compound>
C=CCc1ccc2c(c1)OCO2

>  <discrete.label>
inactive

$$$$
